PROCEDURE SUMMARY: in vivo
EXPERIMENTAL PARAMETERS: mouse, ip
PROPERTY: LD50 at 336 h

Query block: Return value of LD50 at 336 h for input COC(=O)C1=C(C)NC(=O)NC1c1ccccc1SC(F)F (stereo not shown) , no commentary.
Result block: > 2000 mg/kg
